# Assay System: human JAK2 kinase domain (JH1) (Homo sapiens, UniProt O60674)
# Construct: recombinantly generated catalytic kinase (also known as JH1) domain of human JAK1, JAK2, JAK3 and TYK2
# Sequence (O60674 849-1124 limits assumed): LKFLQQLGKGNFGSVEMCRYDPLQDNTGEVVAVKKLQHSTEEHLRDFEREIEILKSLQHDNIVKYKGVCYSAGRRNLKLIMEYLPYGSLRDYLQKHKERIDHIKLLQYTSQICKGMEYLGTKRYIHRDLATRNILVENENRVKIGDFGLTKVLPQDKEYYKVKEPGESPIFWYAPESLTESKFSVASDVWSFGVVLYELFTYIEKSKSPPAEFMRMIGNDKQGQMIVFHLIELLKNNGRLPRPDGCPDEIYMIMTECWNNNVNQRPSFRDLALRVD
# Method Description: JH1 biochemical assay for JAK2 (ADP-Glo kinase assay, recombinant JH1 catalytic domain, JAK3-974 peptide, 15 μM ATP)
# Condition Notes: JAK2 JH1, ADP-Glo
pIC50: −log10 of the molar value. Counter-ions that a name gives are not always drawn.
Measured Metric: pIC50

{"Molecule": "Cc1ncn(-c2cc3c(N4C[C@@H](C)[C@@](C#N)(C5CC5)C4=O)ccnn3c2)n1", "Recorded Value": "5.30 to 6.00"}
{"Molecule": "Cc1cc(-c2cn3nccc3c(N3C[C@@H](C)[C@@](C#N)(C4CC4)C3=O)n2)ccn1 [Example 241, trifluoroacetate]", "Recorded Value": "5.30 to 6.00"}
{"Molecule": "C[C@@H]1CN(c2ccnn3cc(-c4cnn(C5CCN(C)CC5)c4)cc23)C(=O)[C@]1(C#N)C1CC1", "Recorded Value": "> 7.00"}
{"Molecule": "C[C@@H]1CN(c2nc(-c3cncc(Cl)c3)cn3nccc23)C(=O)[C@]1(C#N)C1CC1 [Example 248, trifluoroacetate]", "Recorded Value": "5.30 to 6.00"}
{"Molecule": "C[C@@H]1CN(c2ncnc3cc(-c4cnn(C)c4)sc23)C(=O)[C@]1(C#N)C1CC1", "Recorded Value": "5.30 to 6.00"}
{"Molecule": "COc1cc(-c2cn3nccc3c(N3C[C@@H](C)[C@@](C#N)(C4CC4)C3=O)n2)c(OC)nn1 [Example 253, trifluoroacetate]", "Recorded Value": "< 5.00"}
{"Molecule": "C[C@@H]1CN(c2ccnn3cc(-n4cc(C(F)F)cn4)cc23)C(=O)[C@]1(C#N)C1CC1", "Recorded Value": "6.00 to 7.00"}

---

# Assay System: human JAK2 kinase domain (JH1) (Homo sapiens, UniProt O60674)
# Construct: recombinantly generated catalytic kinase (also known as JH1) domain of human JAK1, JAK2, JAK3 and TYK2
# Method Description: JH1 biochemical assay for JAK2 (ADP-Glo kinase assay, recombinant JH1 catalytic domain, JAK3-974 peptide, 15 μM ATP)
# Condition Notes: JAK2 JH1, ADP-Glo
Counter-ions that a name gives are not always drawn.
Some compounds, each annotated with its measured IC50.

{"Compound": "C[C@@H]1CN(c2nc(-c3cncc(F)c3)cn3nccc23)C(=O)[C@]1(C#N)C1CC1 [Example 246, trifluoroacetate]", "IC50": "100 to 1000 nM"}
{"Compound": "C[C@@H]1CN(c2ccnn3cc(-c4cnn([C@H]5C[C@@H](C#N)C5)c4)cc23)C(=O)[C@]1(C#N)C1CC1", "IC50": "< 100 nM"}
{"Compound": "C[C@@H]1CN(c2ccnn3cc(-n4ccccc4=O)cc23)C(=O)[C@]1(C#N)C1CC1", "IC50": "> 10000 nM"}
{"Compound": "C[C@@H]1CN(c2ccnn3cc(-c4cnn(CC5(C)COC5)c4)cc23)C(=O)[C@]1(C#N)C1CC1", "IC50": "< 100 nM"}
{"Compound": "C[C@@H]1CN(c2ccnc3cc(-c4cnn(C5CC5)c4)oc23)C(=O)[C@]1(C#N)C1CC1", "IC50": "100 to 1000 nM"}
{"Compound": "CNC(=O)c1ccc(-c2cn3nccc3c(N3C[C@@H](C)[C@@](C#N)(C4CC4)C3=O)n2)cn1 [Example 227, trifluoroacetate]", "IC50": "100 to 1000 nM"}
